- Target Or System: His-hMAGL (recombinant polyhistidine tagged human MAGL protein) (Homo sapiens, UniProt Q99685)
- Construct: made in house; host or cells: E. coli BL21(DE3)
- Sequence (Q99685 whole entry): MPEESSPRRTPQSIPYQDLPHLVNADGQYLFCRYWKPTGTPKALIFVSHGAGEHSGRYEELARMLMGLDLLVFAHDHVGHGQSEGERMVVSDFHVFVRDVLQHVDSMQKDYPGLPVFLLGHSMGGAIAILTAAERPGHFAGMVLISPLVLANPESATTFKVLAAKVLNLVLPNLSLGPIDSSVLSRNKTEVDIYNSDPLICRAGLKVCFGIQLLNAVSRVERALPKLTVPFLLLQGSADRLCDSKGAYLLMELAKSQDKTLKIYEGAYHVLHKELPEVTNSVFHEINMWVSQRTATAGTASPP
- Assay Summary: Measurement of MAGL inhibitory activity (arachidonic acid production from 2-arachidonylglycerol, RapidFire-mass spectrometry)
- Assay type: biochemical
- Protocol Conditions: MAGL inhibitory rate at 10 μM test compound; 60 min preincubation with His-hMAGL, 2-arachidonylglycerol substrate, 10 min reaction at room temperature; 10 µM
# % inhibition (10 μM) per entry
Experimental Endpoint: % inhibition (10 μM) (%)

>>> df
                                   molecule  experimental_endpoint  scale_unit  result_number
0  CC(Oc1cc(F)cc(F)c1)C1CN(C(=O)c2cc3c(cc2F)OCC(=O)N3)C1 (stereo not shown) [Example 314]   % inhibition (10 μM)           %             98
1  CC(Oc1cccc(F)c1F)C1CN(C(=O)c2cc3c(cc2F)OCC(=O)N3)C1 (stereo not shown) [Example 310]   % inhibition (10 μM)           %             99
2  CC(Oc1ccc(F)c(F)c1)C1CN(C(=O)c2cc3c(cc2F)OCC(=O)N3)C1 (stereo not shown) [Example 312]   % inhibition (10 μM)           %            101
3  CC(Oc1cccc(F)c1F)C1CN(C(=O)c2cc3c(cc2F)OCC(=O)N3)C1 (stereo not shown) [Example 311]   % inhibition (10 μM)           %            103
4  CC(Oc1cc(F)cc(F)c1)C1CN(C(=O)c2cc3c(cc2F)OCC(=O)N3)C1 (stereo not shown) [Example 315]   % inhibition (10 μM)           %            102
5  CC(Oc1cc(F)ccc1F)C1CN(C(=O)c2cc3c(cc2F)OCC(=O)N3)C1 (stereo not shown) [Example 320]   % inhibition (10 μM)           %            100
6  CC(Oc1ccc(F)c(F)c1)C1CN(C(=O)c2cc3c(cc2F)OCC(=O)N3)C1 (stereo not shown) [Example 313]   % inhibition (10 μM)           %            103

====

# inhibition at 10 µM per entry
- Target Or System: His-hMAGL (recombinant polyhistidine tagged human MAGL protein) (Homo sapiens)
- Construct: made in house; host or cells: E. coli BL21(DE3)
- Assay Summary: Measurement of MAGL inhibitory activity (arachidonic acid production from 2-arachidonylglycerol, RapidFire-mass spectrometry)
- Format: biochemical
- Protocol Conditions: MAGL inhibitory rate at 10 μM test compound; 60 min preincubation with His-hMAGL, 2-arachidonylglycerol substrate, 10 min reaction at room temperature
Experimental Endpoint: inhibition at 10 µM (%)

>>> df
                                   molecule  experimental_endpoint  result_number
0  O=C1COc2cc(F)c(C(=O)N3CC(COc4ccc(Cl)cc4-c4ccc(F)cn4)C3)cc2N1 [Example 195]    inhibition at 10 µM            101
1  O=C1COc2cc(F)c(C(=O)N3CC(COc4ccc5cn[nH]c5c4)C3)cc2N1 [Example 157]    inhibition at 10 µM            100
2  O=C1COc2ccc(C(=O)N3CCC(COc4cccc(C(F)(F)F)c4)CC3)cc2N1 [Example 57]    inhibition at 10 µM             99
3  COc1cc2c(cc1C(=O)N1CC(COc3ccc(F)cc3Cl)C1)NC(=O)CO2 [Example 98]    inhibition at 10 µM             99
4  COC(=O)c1ccc(OCC2CCN(C(=O)c3cc4c(cc3F)OCC(=O)N4)CC2)c(Cl)c1 [Example 84]    inhibition at 10 µM             97
5  O=C1COc2cc(F)c(C(=O)N3CC(COc4ccc(Cl)cc4-c4ccnc(F)c4)C3)cc2N1 [Example 207]    inhibition at 10 µM            100
6  N#Cc1cccc(OCC2CCN(C(=O)c3ccc4c(c3)NC(=O)CO4)CC2)c1 [Example 48]    inhibition at 10 µM             89
